Below, each of the compounds is paired with its reported pIC50 value.
Test system: HCT-116
assay_info: Cytotoxicity against human HCT116 cells after 4 days
Type: functional, cell-based
settings: HCT-116, 96 h
Friendly reminder that pIC50 comes from taking -log10 of the concentration in mol/L.

Known results for compounds:
{"smiles_repr": "C/C=C(/C)C(=O)OC[C@H]1C2=C(C[C@H]3[C@H]4C5=C(C(=O)C(C)=C(OC)C5=O)[C@H](OC(C)=O)[C@@H]([C@H](C#N)N13)N4C)C(=O)C(C)=C(OC)C2=O", "measurement_type": "pIC50", "val": 6.92}
{"smiles_repr": "C/C=C(/C)C(=O)OC[C@H]1C2=C(C[C@H]3[C@H]4C5=C(C[C@@H]([C@H](C#N)N13)N4C)C(=O)C(C)=C(OC)C5=O)C(=O)C(C)=C(O)C2=O", "measurement_type": "pIC50", "val": 7.82}

Attention now turns to another entry.
Which pIC50 is listed for C/C=C(/C)C(=O)OC[C@H]1c2c(c(OC(C)=O)c(C)c(OC)c2OC(C)=O)C[C@H]2[C@H]3C4=C(C[C@@H]([C@H](C#N)N12)N3C)C(=O)C(C)=C(OC)C4=O ?
8.72

----------
Test system: HCT-116
assay_info: Cytotoxicity against human HCT116 cells after 4 days
Format: functional, cell-based
settings: HCT-116, 96 h
measurement_type: pIC50
Friendly reminder that pIC50 comes from taking -log10 of the concentration in mol/L.

Known results for compounds:
{"compound": "C/C=C(/C)C(=O)OC[C@H]1C2=C(C[C@H]3[C@H]4C5=C(C(=O)C(C)=C(OC)C5=O)[C@H](OC)[C@@H]([C@H](C#N)N13)N4C)C(=O)C(C)=C(OC)C2=O [RENIERAMYCIN R]", "target_under_test": "HCT-116", "measurement_type": "pIC50", "val": 7.64}
{"compound": "C/C=C(/C)C(=O)OC[C@H]1C2=C(C[C@H]3[C@H]4c5c(OC(C)=O)c(OC)c(C)c(OC(C)=O)c5[C@H](OC(C)=O)[C@@H]([C@H](C#N)N13)N4C)C(=O)C(C)=C(OC)C2=O", "target_under_test": "HCT-116", "measurement_type": "pIC50", "val": 6.20}
{"compound": "C/C=C(/C)C(=O)OC[C@H]1C2=C(C[C@H]3[C@H]4c5c(O)c(OC)c(C)c(O)c5C(=O)[C@@H]([C@H](C#N)N13)N4C)C(=O)C(C)=C(OC)C2=O [RENIERAMYCIN Q]", "target_under_test": "HCT-116", "measurement_type": "pIC50", "val": 7.23}

Attention now turns to another entry.
Which pIC50 is listed for C/C=C(/C)C(=O)OC[C@H]1c2c(c(OC(C)=O)c(C)c(OC)c2OC(C)=O)C[C@H]2[C@H]3c4c(c(OC(C)=O)c(C)c(OC)c4OC(C)=O)C[C@@H]([C@H](C#N)N12)N3C ?
8.52

Where these numbers come from: ChEMBL document CHEMBL1151234
